# TEST METHOD NOTES: physchem
# CONDITION DESCRIPTION: octanol/water, pH 7.4
Documented logD across a set of molecules

[
  {
    "SMILES NOTATION": "CCOc1ncc(-c2ccc(S(C)(=O)=O)cc2)cc1-c1ccc(OC)nc1",
    "logD": 3.7
  },
  {
    "SMILES NOTATION": "CNc1ncc(-c2ccc(S(C)(=O)=O)cc2)cc1-c1ccc(OC)nc1",
    "logD": 2.6
  }
]

QUERY: # lookup: logD of COc1ccc(-c2cc(-c3ccc(S(C)(=O)=O)cc3)cnc2C(F)(F)F)cn1
RESULT: 3

QUERY: Do the same for COc1ccc(-c2cc(-c3ccc(S(C)(=O)=O)cc3)cnc2I)cn1 please
RESULT: 3.3

QUERY: Next entry: CNS(=O)(=O)c1ccc(-c2cnc(N)c(-c3ccc(C(F)(F)F)nc3)n2)cc1
RESULT: 2.8

QUERY: Request: COc1ccc(-c2cc(-c3ccc(S(C)(=O)=O)cc3)cnc2N)cn1
RESULT: 2.2

QUERY: What would you report for COc1ccc(-c2nc(-c3ccc(S(C)(=O)=O)cc3)ccc2N)cn1 ?
RESULT: 2.3

QUERY: Lookup CCS(=O)(=O)c1ccc(-c2cnc(N)c(-c3ccc(C(F)(F)F)nc3)n2)cc1
RESULT: 3.1

QUERY: Another: COc1ccc(-c2cc(-c3ccc(S(C)(=O)=O)cc3)cnc2O)cn1
RESULT: 1.7

---

// values below are reported AUC at 24 h
# TEST METHOD NOTES: Apparent AUC in mouse infected with Plasmodium berghei ANKA at 3 mg/kg, po measured after 24 hrs
# Format: ADME, organism-based
# Set-up: time < 24 hr, dose 3 mg/kg, route oral
# CONDITION DESCRIPTION: in vivo
Give the number first and the unit second.

Consider the reported AUC at 24 h for these molecules:
[
  {
    "SMILES NOTATION": "Nc1ncc(-c2ccc(C(=O)N3CCOCC3)cc2)nc1-c1ccc(C(F)(F)F)cc1",
    "AUC at 24 h": "0.01 µM·h"
  },
  {
    "SMILES NOTATION": "CS(=O)(=O)c1ccc(-c2cnc(N)c(-c3ccc(C(F)(F)F)nc3)n2)cc1",
    "AUC at 24 h": "24.3 µM·h"
  },
  {
    "SMILES NOTATION": "CCS(=O)(=O)c1ccc(-c2cnc(N)c(-c3ccc(C(F)(F)F)nc3)n2)cc1",
    "AUC at 24 h": "0.01 µM·h"
  },
  {
    "SMILES NOTATION": "CS(=O)(=O)c1ccc(-c2cnc(N)c(-c3ccc(C(F)(F)F)cc3)n2)cc1",
    "AUC at 24 h": "6.4 µM·h"
  }
]

Proceed to the following item.
QUERY: Would you mind telling me what AUC at 24 h value was observed for CNS(=O)(=O)c1ccc(-c2cnc(N)c(-c3ccc(C(F)(F)F)nc3)n2)cc1 ?
RESULT: 0.01 µM·h

---

# TEST METHOD NOTES: Apparent Cmax in mouse infected with Plasmodium berghei ANKA at 3 mg/kg, po measured after 24 hrs
# Type: ADME, organism-based
# Set-up: dose 3 mg/kg, route oral
# CONDITION DESCRIPTION: in vivo
# Cmax per entry
Enter your answer as a number in nM; do not include the unit.

QUERY: Any idea what Cmax was measured for CNS(=O)(=O)c1ccc(-c2cnc(N)c(-c3ccc(C(F)(F)F)nc3)n2)cc1 ?
RESULT: 2000

QUERY: Another compound: CS(=O)(=O)c1ccc(-c2cnc(N)c(-c3ccc(C(F)(F)F)cc3)n2)cc1
RESULT: 500

QUERY: Again, but for CCS(=O)(=O)c1ccc(-c2cnc(N)c(-c3ccc(C(F)(F)F)nc3)n2)cc1
RESULT: 1100

QUERY: Query Nc1ncc(-c2ccc(C(=O)N3CCOCC3)cc2)nc1-c1ccc(C(F)(F)F)cc1 next
RESULT: 1100

QUERY: Now this one: CS(=O)(=O)c1ccc(-c2cnc(N)c(-c3ccc(C(F)(F)F)nc3)n2)cc1
RESULT: 1500

Where these numbers come from: ChEMBL document CHEMBL3124877
